target: human FXR (Homo sapiens); experiment: transient human FXR/Gal4-luciferase reporter assay; conditions: Gal4-hFXR transfected HEK293 reporter cells; relative to 8 μM GW-4064
Sequence (Q96RI1 262-486 limits assumed): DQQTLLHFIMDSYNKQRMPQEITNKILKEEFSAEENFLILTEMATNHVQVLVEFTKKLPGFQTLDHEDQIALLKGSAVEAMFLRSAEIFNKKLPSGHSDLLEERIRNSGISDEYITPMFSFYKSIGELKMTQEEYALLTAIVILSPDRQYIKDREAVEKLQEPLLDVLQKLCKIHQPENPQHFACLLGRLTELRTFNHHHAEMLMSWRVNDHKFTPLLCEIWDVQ
Flag rule - EC50 less than 900 nM flags Fulfilled; the remaining entries get Not fulfilled.

Study these solved cases before continuing.
{"molecule": "O=C(O)c1cnc(N2CCC3(C=C(c4c(-c5c(Cl)cccc5Cl)noc4C4CC4)C3)CC2)c(F)c1", "study.target": "human FXR (Homo sapiens)", "assigned.class": "Fulfilled"}
{"molecule": "CC(C)(C)OC(=O)N1CCC2(CC1)COC(c1c(-c3c(Cl)cccc3Cl)noc1C1CC1)O2 (racemic)", "study.target": "human FXR (Homo sapiens)", "assigned.class": "Not fulfilled"}
{"molecule": "O=C(O)c1cc(F)c2nc(N3[C@@H]4CC[C@H]3CC3(COC(c5c(-c6c(Cl)cccc6Cl)noc5C5CC5)O3)C4)sc2c1 (stereo partly drawn)", "study.target": "human FXR (Homo sapiens)", "assigned.class": "Not fulfilled"}
{"molecule": "O=C(NS(=O)(=O)C1CC1)c1ccc2cc(N3CCC4(C=C(c5c(-c6c(Cl)cccc6Cl)noc5C5CC5)C4)CC3)ccc2n1", "study.target": "human FXR (Homo sapiens)", "assigned.class": "Fulfilled"}
{"molecule": "O=C(O)c1ccc2cc(N3CCC4(C=C(c5c(-c6c(F)cccc6Cl)noc5C5CC5)C4)CC3)ccc2n1", "study.target": "human FXR (Homo sapiens)", "assigned.class": "Fulfilled"}
{"molecule": "O=C(O)c1ccc(N2CCC3(CC2)COC(c2c(-c4ccccc4OC(F)(F)F)noc2C2CC2)O3)nc1 (stereo not drawn)", "study.target": "human FXR (Homo sapiens)", "assigned.class": "Not fulfilled"}
{"molecule": "O=C(O)c1cnc(N2CCC3(C=C(c4c(-c5c(Cl)cccc5Cl)noc4C4CC4)C3)CC2)nc1C(F)(F)F", "study.target": "human FXR (Homo sapiens)", "assigned.class": "Fulfilled"}
{"molecule": "O=C(O)c1cc2ccc(N3CCC4(C=C(c5c(-c6c(F)cccc6F)noc5C5CC5)C4)CC3)cc2nn1", "study.target": "human FXR (Homo sapiens)", "assigned.class": "Fulfilled"}

Input line: I wonder whether O=C(O)CNC(=O)c1cc(F)c2nc(N3CCC4(C=C(c5c(-c6ccccc6C(F)(F)F)noc5C5CC5)C4)CC3)sc2c1 has EC50 below 900 nM. Can you tell?
Output line: Not fulfilled

Input line: EC50 under 900 nM? Item: COc1cc(C(=O)NS(C)(=O)=O)nc2ccc(N3CCC4(C=C(c5c(-c6ccccc6C(F)(F)F)noc5C5CC5)C4)CC3)cc12
Output line: Fulfilled
